Numbers sourced from patent US20240277693A1.

test: Stability testing of capsules at 25° C./60% RH in water impermeable blister pack; format: physicochemical; settings: 0.5 mg capsules of Example 28, 36 months
observed-property: Decomposition products (% w/w), relative to the amount of tasquinimod in capsule

{"compound": "COc1cccc2c1c(O)c(Cc1c(O)c3c(OC)cccc3n(C)c1=O)c(=O)n2C [Compound IV]", "unit-label": "% w/w", "reported-result": 0.09}

I: CNc1ccc(C(F)(F)F)cc1 [Compound I, N-methyl-4-(trifluoromethyl)aniline]
II: COc1cccc2c1c(O)cc(=O)n2C [Compound III]
Incoming: Lower Decomposition products (% w/w), relative to the amount of tasquinimod in capsule: I or II ? # answer = label of selected item
Outgoing: I

* * *

experiment: Stability testing of capsules at 25° C./60% RH in water impermeable blister pack; assay type: physicochemical; conditions: 1.0 mg capsules of Example 29, 12 months
observed-property: Decomposition products (% w/w), relative to the amount of tasquinimod in capsule

{"chem-smiles": "COc1cccc2c1c(O)cc(=O)n2C", "reported-result": 0.06}
{"chem-smiles": "COc1cccc2c1c(O)c(C(=O)O)c(=O)n2C", "reported-result": 0.06}

* * *

assay: Stability testing of capsules at 25° C./60% RH in water impermeable blister pack; format: physicochemical; conditions: 1.0 mg capsules of Example 29, 24 months
observed-property: Decomposition products (% w/w), relative to the amount of tasquinimod in capsule

P: COc1cccc2c1c(O)c(C(=O)O)c(=O)n2C
Q: COc1cccc2c1c(O)cc(=O)n2C
Incoming: Which of the two gives a bigger number for Decomposition products (% w/w), relative to the amount of tasquinimod in capsule: P or Q ? # answer = label of selected item
Outgoing: Q
(Q: 0.10 % w/w, P: 0.06 % w/w)

* * *

experiment: Stability testing of capsules at 25° C./60% RH in water impermeable blister pack; assay type: physicochemical; details: 1.0 mg capsules of Example 29, 48 months
observed-property: Decomposition products (% w/w), relative to the amount of tasquinimod in capsule

I: COc1cccc2c1c(O)c(C(=O)O)c(=O)n2C [Compound II]
II: COc1cccc2c1c(O)cc(=O)n2C [Compound III]
Incoming: Lower Decomposition products (% w/w), relative to the amount of tasquinimod in capsule: I or II ? # answer = label of selected item
Outgoing: I
(I: 0.08 % w/w, II: 0.18 % w/w)

* * *

assay: Stability testing of capsules at 25° C./60% RH in water impermeable blister pack; type: physicochemical; conditions: 0.5 mg capsules of Example 28, 9 months
observed-property: Decomposition products (% w/w), relative to the amount of tasquinimod in capsule

P: COc1cccc2c1c(O)cc(=O)n2C
Q: CNc1ccc(C(F)(F)F)cc1
Incoming: Lower Decomposition products (% w/w), relative to the amount of tasquinimod in capsule: P or Q ? # answer = label of selected item
Outgoing: Q

* * *

test: Stability testing of capsules at 25° C./60% RH in water impermeable blister pack; type: physicochemical; settings: 1.0 mg capsules of Example 29, 18 months
observed-property: Decomposition products (% w/w), relative to the amount of tasquinimod in capsule

1: COc1cccc2c1c(O)cc(=O)n2C
2: COc1cccc2c1c(O)c(C(=O)O)c(=O)n2C
Incoming: Lower Decomposition products (% w/w), relative to the amount of tasquinimod in capsule: 1 or 2 ? # answer = label of selected item
Outgoing: 2
(2: 0.06 % w/w, 1: 0.09 % w/w)
